Protocol description: Stability in rat liver microsomes assessed as parent compound remaining at 10 uM measured after 70 mins by HPLC-UV analysis
Assay type: ADME, Microsome
Condition label: read-out: Stability
Parameter: remaining at 1.167 h, 10 µM (%)
All answers are understood in %, so give the number only.

Known results for compounds:
- Entry smiles: "COc1ccc(-c2oc3c4c(cc(O)c3c(=O)c2O)OC(C)(C)CC4)cc1"
  remaining at 1.167 h, 10 µM (%): 27
- Entry smiles: "COc1ccc(-c2oc3c4c(cc(O)c3c(=O)c2OC(=O)NCC(=O)O)OC(C)(C)CC4)cc1"
  remaining at 1.167 h, 10 µM (%): 76

Give remaining at 1.167 h, 10 µM for COc1ccc(-c2oc3c4c(cc(O)c3c(=O)c2OC(=O)N[C@@H](Cc2ccccc2)C(=O)O)OC(C)(C)CC4)cc1
76

Give remaining at 1.167 h, 10 µM for COc1ccc(-c2oc3c4c(cc(O)c3c(=O)c2OC(=O)N[C@@H](CC(C)C)C(=O)O)OC(C)(C)CC4)cc1
76

Give remaining at 1.167 h, 10 µM for CC[C@H](C)[C@H](NC(=O)Oc1c(-c2ccc(OC)cc2)oc2c3c(cc(O)c2c1=O)OC(C)(C)CC3)C(=O)O
76

Give remaining at 1.167 h, 10 µM for COc1ccc(-c2oc3c4c(cc(O)c3c(=O)c2OC(=O)N[C@H](C(=O)O)C(C)C)OC(C)(C)CC4)cc1
76

* * *

Reported half-life is given for each of the following compounds.
Protocol description: Stability in Sprague-Dawley rat intestine homogenates assessed as half life at pH 7.4 by HPLC analysis
Type: ADME, tissue-based

Known results for compounds:
- Entry smiles: "COc1ccc(-c2oc3c4c(cc(O)c3c(=O)c2OC(=O)N[C@H](C(=O)O)C(C)C)OC(C)(C)CC4)cc1"
  half-life: "7.22 h"
- Entry smiles: "COc1ccc(-c2oc3c4c(cc(O)c3c(=O)c2OC(=O)N[C@@H](Cc2ccccc2)C(=O)O)OC(C)(C)CC4)cc1"
  half-life: "5.85 h"
- Entry smiles: "COc1ccc(-c2oc3c4c(cc(O)c3c(=O)c2OC(=O)NCC(=O)O)OC(C)(C)CC4)cc1"
  half-life: "1.89 h"
- Entry smiles: "COc1ccc(-c2oc3c4c(cc(O)c3c(=O)c2O)OC(C)(C)CC4)cc1"
  half-life: "> 12 h"
- Entry smiles: "COc1ccc(-c2oc3c4c(cc(O)c3c(=O)c2OC(=O)N[C@@H](CC(C)C)C(=O)O)OC(C)(C)CC4)cc1"
  half-life: "8.67 h"

Give half-life for CC[C@H](C)[C@H](NC(=O)Oc1c(-c2ccc(OC)cc2)oc2c3c(cc(O)c2c1=O)OC(C)(C)CC3)C(=O)O
4.71 h

* * *

Protocol description: Chemical stability of the compound in simulated intestinal fluid assessed as half life by HPLC analysis
Format: ADME, physicochemical
Parameter: half-life

Known results for compounds:
- Entry smiles: "COc1ccc(-c2oc3c4c(cc(O)c3c(=O)c2OC(=O)NCC(=O)O)OC(C)(C)CC4)cc1"
  Parameter: "half-life"
  Value: "5.24 h"
- Entry smiles: "COc1ccc(-c2oc3c4c(cc(O)c3c(=O)c2OC(=O)N[C@H](C(=O)O)C(C)C)OC(C)(C)CC4)cc1"
  Parameter: "half-life"
  Value: "> 12 h"
- Entry smiles: "COc1ccc(-c2oc3c4c(cc(O)c3c(=O)c2OC(=O)N[C@@H](Cc2ccccc2)C(=O)O)OC(C)(C)CC4)cc1"
  Parameter: "half-life"
  Value: "> 12 h"
- Entry smiles: "COc1ccc(-c2oc3c4c(cc(O)c3c(=O)c2OC(=O)N[C@@H](CC(C)C)C(=O)O)OC(C)(C)CC4)cc1"
  Parameter: "half-life"
  Value: "> 12 h"

Give half-life for CC[C@H](C)[C@H](NC(=O)Oc1c(-c2ccc(OC)cc2)oc2c3c(cc(O)c2c1=O)OC(C)(C)CC3)C(=O)O
> 12 h

Give half-life for COc1ccc(-c2oc3c4c(cc(O)c3c(=O)c2O)OC(C)(C)CC4)cc1
> 12 h

* * *

Protocol description: Prodrug conversion in Sprague-Dawley rat assessed as Cmax of cycloicaritin metabolite at 20 mg/kg, po measured up to 12 hrs by HPLC-MS/MS analysis
Format: ADME, organism-based
Condition label: in vivo
Parameter: Cmax (nM)
All answers are understood in nM, so give the number only.

Give Cmax for COc1ccc(-c2oc3c4c(cc(O)c3c(=O)c2OC(=O)N[C@@H](CC(C)C)C(=O)O)OC(C)(C)CC4)cc1
66.6
